# ASSAYED TARGET: furin, P09958;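 note: purified furin at 1:10 enzyme:substrate in 50 mM HEPES pH 7.5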
# Sequence (P09958 whole entry): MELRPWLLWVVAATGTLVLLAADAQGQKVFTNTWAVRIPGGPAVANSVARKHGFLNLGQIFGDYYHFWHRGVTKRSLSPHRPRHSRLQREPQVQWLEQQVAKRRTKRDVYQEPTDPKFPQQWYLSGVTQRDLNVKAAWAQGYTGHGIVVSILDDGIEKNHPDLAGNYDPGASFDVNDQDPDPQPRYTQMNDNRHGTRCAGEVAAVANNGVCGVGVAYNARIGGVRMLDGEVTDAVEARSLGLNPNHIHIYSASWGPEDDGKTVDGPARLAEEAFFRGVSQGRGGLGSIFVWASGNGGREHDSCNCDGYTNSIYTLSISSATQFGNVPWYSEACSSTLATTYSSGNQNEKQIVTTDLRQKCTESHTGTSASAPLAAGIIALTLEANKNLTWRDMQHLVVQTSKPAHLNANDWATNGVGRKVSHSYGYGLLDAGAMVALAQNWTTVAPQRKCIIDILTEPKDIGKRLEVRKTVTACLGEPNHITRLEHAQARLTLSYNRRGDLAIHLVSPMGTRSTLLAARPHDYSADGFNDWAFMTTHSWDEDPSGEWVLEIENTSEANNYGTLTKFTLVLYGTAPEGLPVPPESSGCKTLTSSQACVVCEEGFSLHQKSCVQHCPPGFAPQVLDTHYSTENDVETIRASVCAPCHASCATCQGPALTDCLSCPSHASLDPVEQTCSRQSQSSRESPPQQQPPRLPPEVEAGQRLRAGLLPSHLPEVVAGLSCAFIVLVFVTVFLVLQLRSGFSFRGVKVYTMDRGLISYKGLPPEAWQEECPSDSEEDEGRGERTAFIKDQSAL
# EXPERIMENTAL DETAILS: furin cleavage Z-score vs untreated control; higher = more cleavage, active = 3.5 or more, inactive = 1 or less, 8 variable residues between constant flanks
# CONDITIONS: 15 min
The list shows a part of the results. No count for the full screen is at hand.
Your answer must be one of the following: TRUE for active, FALSE for inactive

| SEQUENCE TEXT | ANSWER LABEL |
| --- | --- |
| CAVFSRDSRSAGNASASA [FS-103] | FALSE |
| CANKVRAKRSAGNASASA [FS-618] | TRUE |
| CARRATLKRSAGNASASA [FS-624] | TRUE |

Kindly provide the recorded test outcome for the following sequence: CAVTPCAAEEAGNASASA [HC1376]
FALSE
